- tested_on: UniProtKB P55072
- Sequence (P55072 whole entry, looked up): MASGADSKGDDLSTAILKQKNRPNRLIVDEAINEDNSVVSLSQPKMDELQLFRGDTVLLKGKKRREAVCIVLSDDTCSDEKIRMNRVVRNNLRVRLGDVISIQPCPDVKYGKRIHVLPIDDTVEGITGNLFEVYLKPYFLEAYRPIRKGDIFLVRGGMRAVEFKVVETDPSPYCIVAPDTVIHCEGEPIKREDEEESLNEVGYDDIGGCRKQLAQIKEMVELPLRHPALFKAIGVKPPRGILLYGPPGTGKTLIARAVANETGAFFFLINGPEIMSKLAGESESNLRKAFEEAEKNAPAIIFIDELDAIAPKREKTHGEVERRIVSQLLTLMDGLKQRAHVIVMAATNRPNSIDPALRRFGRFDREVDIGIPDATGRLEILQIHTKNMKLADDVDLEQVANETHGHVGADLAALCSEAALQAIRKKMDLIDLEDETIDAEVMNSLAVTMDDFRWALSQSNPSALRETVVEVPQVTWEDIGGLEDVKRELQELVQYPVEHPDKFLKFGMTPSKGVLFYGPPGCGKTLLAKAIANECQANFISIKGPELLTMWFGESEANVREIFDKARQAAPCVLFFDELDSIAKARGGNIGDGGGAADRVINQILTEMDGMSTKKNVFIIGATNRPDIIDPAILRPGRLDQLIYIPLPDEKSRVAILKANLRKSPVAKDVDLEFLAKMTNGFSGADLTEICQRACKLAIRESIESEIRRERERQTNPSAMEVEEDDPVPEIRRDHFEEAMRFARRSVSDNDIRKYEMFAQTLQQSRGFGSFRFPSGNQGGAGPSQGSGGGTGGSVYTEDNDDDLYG
- protocol_notes: p97-dependent UbG76V-GFP degradation inhibitors in cells, SAR follow-up, imaging, HeLa, round 3 (AID 504649)
Activity calls are given as the source filed them.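 Rule for the calls: active = half-maximal inhibitory concentration IC50 of 10 µM or lower; inactive = the rest.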
assay_readout: IC50

Worked examples follow.
>>> result("COc1cccc2c(NCc3ccccc3)nc(Nc3cccc(Cl)c3)nc12")
"5.4 µM"
>>> result("COc1cccc2c(NCc3ccccc3)nc(N3CCN(C(C)=O)CC3)nc12")
"> 20 µM (inactive)"
>>> result("COc1cccc2c(NCc3ccccc3)nc(-n3c(N)nc4c(F)cccc43)nc12")
"5.4 µM"
>>> result("COc1cccc2c(NCc3ccccc3)nc(N(C)Cc3ccccc3)nc12")
"> 20 µM (inactive)"
>>> result("COc1cccc2c(NCc3ccccc3)nc(N3CCNc4ccccc43)nc12")
"3.7 µM"

Give its IC50 value. Item: "COc1ccc2c(c1)nc(N)n2-c1nc(NCc2ccccc2)c2cccc(OC)c2n1"
0.96 µM

I'd like to know its IC50. The molecule in question is "OCCOc1cccc2c(NCc3ccccc3)nc(N3CCOc4ccccc43)nc12"
3.8 µM

Report IC50 for "COc1cccc2c(NCc3ccccc3O)nc(N3CCOc4ccccc43)nc12" please.
6 µM

----------
- tested_on: UniProt P55072
- protocol_notes: p97-dependent UbG76V-GFP degradation inhibitors in cells, SAR follow-up, imaging, HeLa, round 3 (AID 504649)
The source made the active and inactive calls.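 The calls were made as follows: active = half-maximal inhibitory concentration IC50 of 10 µM or lower; inactive = the rest.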
// classify into active, inactive

Hi, sorry to bother you, what did the test record for "COc1cccc2c(NCc3ccccc3)nc(NCc3cncs3)nc12" ?
inactive

Assay result, entry "COc1cccc2c(NCc3ccccc3)nc(-n3c(N)nc4ccccc43)nc12" — outcome?
active

For "CC(C)Nc1nc(Nc2cccc(Cl)c2)nc2ccccc12" , which call appears in the assay record?
inactive

----------
- tested_on: Transitional endoplasmic reticulum ATPase (Homo sapiens)
- protocol_notes: p97-dependent UbG76V-GFP degradation inhibitors in cells, SAR follow-up, imaging, HeLa, round 3 (AID 504649)
Activity calls are given as the source filed them.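 The calls were made as follows: active = half-maximal inhibitory concentration IC50 of 10 µM or lower; inactive = the rest.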
A correct response names exactly one class from active, inactive

>>> label_value("COc1cccc2c(NCc3ccccc3)nc(NCC3CCCCC3)nc12")
"active"
>>> label_value("COc1cccc2c(NCc3ccccc3)nc(-n3c(=O)oc4ccccc43)nc12")
"active"
>>> label_value("COc1cccc2c(NCc3ccccc3)nc(-n3c(N)nc4cc(F)ccc43)nc12")
"active"

Test call for this compound, please: "COCCOc1cccc2c(NCc3ccccc3)nc(N3CCOc4ccccc43)nc12"
active

So what was the verdict on "COc1cccc2c(NCc3ccccn3)nc(N3CCOc4ccccc43)nc12" in this test?
inactive

Could you kindly confirm the outcome this assay logged for "COc1cccc2c(NCc3cccc(N(C)C)c3)nc(N3CCOc4ccccc43)nc12" ?
inactive

State the result this test recorded for "c1ccc(CNc2nc(N3CCc4ccccc4C3)nc3ccccc23)cc1" .
active

For "c1ccc(CNc2nc(N3CCOc4ccccc43)nc3c(-c4ccccc4)cccc23)cc1" , what call appears in the results of this test?
active

Answer briefly: the call reported for "COc1cccc2c(NCc3ccccc3)nc(-n3c(N)nc4cc(C)ccc43)nc12" in this assay.
active

Please let me know the test result on file for "c1ccc2c(c1)OCCN2c1nc(N2CCOc3ccccc32)c2ccccc2n1" .
active

Outcome? "COc1cccc2c(NCc3ccccc3)nc(Nc3cc(C)cc(F)c3)nc12"
active
